Tested on: THP-1 cells
method_summary: TNFα generation assay
Assay type: cell-based, human
recorded_conditions: Homo sapiens, THP-1, THP-1 cells; Table 22; read-out: IC50 in TNFα generation assay
pIC50: −log10 of the molar value.
Overview of recorded pIC50 for various compounds

Here are 3 compounds together with their reported answers.
compound	pIC50
COCCOc1ncc(Nc2nc(N[C@@H]3CCCC[C@@H]3N)c(F)cc2C(N)=O)cc1C	6.89 to 7.19
CC[C@@H](Nc1nc(Nc2ccc3ncccc3c2)c(C(N)=O)cc1F)C(N)=O	6.89 to 7.19
NC(=O)c1cc(F)c(N[C@@H]2CCCC[C@@H]2N)nc1Nc1cncc(C(=O)Nc2ccccc2)c1	6.70 to 6.89

According to the records, this compound `CC[C@H](N)[C@@H](CC(C)C)Nc1nc(Nc2ccc3ncccc3c2)c(C(N)=O)cc1F` displays pIC50 of 6.70 to 6.89

Short answer for NC(=O)c1cc(F)c(NC2CCCCC2N)nc1Nc1cncc(-c2ccc3ccncc3c2)c1 (centres unmarked) : pIC50 was 6.89 to 7.19

Value of pIC50 reported for the compound `COCCn1ccc2c(Nc3nc(N[C@@H]4CCCC[C@@H]4N)c(F)cc3C(N)=O)ccnc21` is 6.70 to 6.89
